Tested on: BT-549 breast
testProtocol: NCI-60 one-dose screen, 48 h (100 = growth as untreated, 0 = no growth, -100 = all killed)
reportedConditions: 10 µM unless noted
The panel holds about 83,000 compounds, 20% with a hit somewhere; the sample as a whole holds those more often.
Could you please mark MET for values of growth below 50% and NOT MET for values at or above it?

For COc1ccc(N/N=C/c2ccc3c(c2)Sc2ccccc2N3C)cc1 , is the recorded growth below the cut-off of 50%? NOT MET

Check if growth falls below 50% for CCCCCC(C)(O)C(C(=O)O)c1ccccc1 (configuration not stated) . NOT MET

Lab note: confirm whether the reported growth for this compound is below 50%, equality not counting. compound: COc1cc(C2CC(c3cccc(Nc4ccncc4)c3)=Nc3c(N)ncnc3N2)cc(OC)c1OC (configuration not stated) NOT MET

For FC(F)(F)c1cc(N2CCCCC2)nc(NCCCNc2ccnc3cc(Cl)ccc23)n1 , is the recorded growth below the cut-off of 50%? NOT MET

Given the entry CC1(C)CC[C@]2(CO)CC[C@]3(C)C(=CC[C@@H]4[C@@]5(C)CCNCC(C)(C)[C@@H]5CC[C@]43C)[C@@H]2C1 , would its reported growth be below 50%? NOT MET

Decide: growth of Clc1ccc2c(NCCCn3cnc4c(N5CCCC5)nc(Cl)nc43)ccnc2c1 strictly below 50%? NOT MET

Consider the compound CCC(C)C(N)C(=O)NC(CC(C)C)C(=O)N1CCCC1C(=O)NC(Cc1c[nH]c2ccccc12)C(=O)NC(CCCCN)C(=O)NC(Cc1c[nH]c2ccccc12)C(=O)N1CCCC1C(=O)NC(Cc1c[nH]c2ccccc12)C(=O)NC(Cc1c[nH]c2ccccc12)C(=O)N1CCCC1C(=O)NC(Cc1c[nH]c2ccccc12)C(=O)NC(CCCNC(=N)N)C(=O)NC(CCCNC(=N)N)C(N)=O (configuration not stated) . Is its growth strictly less than 50%? NOT MET

For C#CCOc1cccc(-c2ncnc3cc(NC(=O)CCl)ccc23)c1 , is the recorded growth below the cut-off of 50%? MET

Field: below-cutoff. Rule: recorded growth strictly less than 50%. Subject: O=C1c2ccccc2C(=O)c2cc(Cn3c[n+](Cc4ccc5ccccc5c4)c4ccccc43)ccc21 MET

Hi there! Is growth for C=C(C)[C@@H]1CC[C@]2(C#N)CC[C@]3(C)[C@H](CC[C@@H]4[C@@]5(C)CCCNC(C)(C)[C@@H]5CC[C@]43C)[C@@H]12 below 50%, do you know? NOT MET

is_below(growth, 50%) for O=C1/C(=C/c2cccc([N+](=O)[O-])c2)COc2ccc(O)c(O)c21 ? MET

# check: growth < 50% for COCCn1cc(-c2nc(-c3cc4cccnc4n3C)cs2)c2cc(OC)ccc21 MET

Hi there! Is growth for O=c1c(Cc2ccc(F)cc2)cc(-c2ccccc2)nn1C/C(=N/O)c1ccccc1 below 50%, do you know? MET

Please determine if O=C(Nc1cccc(Cn2c(=O)[nH]c3ccc(Oc4ncccn4)cc3c2=O)c1)c1cccc(Cl)c1 is below 50% in terms of growth. MET

Input CC(=O)Cc1nsc(NC(=O)c2cc(-c3cc(Cl)ccc3Cl)oc2C)n1 ; condition: growth strictly below 50%. Does it hold? NOT MET

A record lists CCOC(=O)/C(=C/c1ccc([N+](=O)[O-])cc1)C(=O)c1ccccc1 . Is its growth below 50%? MET

Does the reported growth of the following compound sit strictly below 50%? COc1cccc(C(=O)Nc2cccc(NC(=O)c3ccccn3)c2)c1 NOT MET
